System: L-1210 Leukemia
Assay: L-1210 leukemia in vivo, IV drug vs IP tumor, dosed on day 1
Parameters: species or system Male BDF1 mice
Conditions: IV drug vs IP tumor, dosed on day 1; T/C = median survival treated/control x 100; each value at the dose (1-600 µg/kg)
metric name: Best T/C
Just the number, please.

// worked examples, Best T/C included
- Cc1c[nH]c2c1[C@@]13C[C@@H]1CN(C(=O)c1cc4cc(NC(=O)c5cc6ccccc6o5)ccc4[nH]1)C3=CC2=O [U-73,975, reference compound]: 213
- Cc1c[nH]c2c(O)cc3c(c12)[C@H](CCl)CN3C(=O)c1ccc(C(=O)N2C[C@@H](CCl)c3c2cc(O)c2[nH]cc(C)c32)[nH]1: 156
- Cc1c[nH]c2c(O)cc3c(c12)[C@H](CCl)CN3C(=O)c1cc2c3c(ccc2[nH]1)N(C(=O)N1CCc2c1ccc1[nH]c(C(=O)N4C[C@@H](CCl)c5c4cc(O)c4[nH]cc(C)c54)cc21)CC3: 243

Let us move to another entry and its Best T/C.
Recorded Best T/C for Cc1c[nH]c2c(O)cc3c(c12)[C@H](CCl)CN3C(=O)c1cc2cc(NC(=O)C(=O)Nc3ccc4[nH]c(C(=O)N5C[C@H](CCl)c6c5cc(O)c5[nH]cc(C)c65)cc4c3)ccc2[nH]1 , please? 106

###

Recorded IC50 for the following compounds
Test system: L1210 leukemia cells
Test: In vitro L1210 cell growth inhibition
Format: cell-based, murine
Conditions: Mus musculus, concentration of drug which inhibits cell growth 50%, read-out: ID50 (the source's name)

- CCCCCCCCCC(=O)Oc1cc2c(c3c(C)c[nH]c13)[C@H](CCl)CN2C(=O)c1cc2cc(NC(=O)Nc3ccc4[nH]c(C(=O)N5C[C@@H](CCl)c6c5cc(OC(=O)CCCCCCCCC)c5[nH]cc(C)c65)cc4c3)ccc2[nH]1: 0.001 ng/mL
- Cc1c[nH]c2c(O)cc3c(c12)[C@H](CCl)CN3C(=O)c1ccc(C(=O)N2C[C@@H](CCl)c3c2cc(O)c2[nH]cc(C)c32)o1: 0.01 ng/mL
- Cc1c[nH]c2c(O)cc3c(c12)[C@H](CCl)CN3C(=O)c1cc2cc(NC(=O)c3ccc(C(=O)Nc4ccc5[nH]c(C(=O)N6C[C@@H](CCl)c7c6cc(O)c6[nH]cc(C)c76)cc5c4)o3)ccc2[nH]1: 0.012 ng/mL

Which value of IC50 has been reported for Cc1c[nH]c2c(O)cc3c(c12)[C@H](CCl)CN3C(=O)c1ccc(C(=O)N2C[C@@H](CCl)c3c2cc(O)c2[nH]cc(C)c32)[nH]1 in the records? 0.004 ng/mL

Consider next the compound Cc1c[nH]c2c1C13CC1CN(C(=O)c1cc4cc(NC(=O)Nc5ccc6[nH]c(C(=O)N7CC8CC89C7=CC(=O)c7[nH]cc(C)c79)cc6c5)ccc4[nH]1)C3=CC2=O (centres unmarked) in the same way. 0.001 ng/mL

###

Some molecules, each annotated with its measured Best T/C.
Test system: L-1210 Leukemia
Experiment: L-1210 leukemia in vivo, IV drug vs IP tumor, dosed on day 1
Parameters: species or system Male BDF1 mice
Details: IV drug vs IP tumor, dosed on day 1; T/C = median survival treated/control x 100; each value at the dose (1-600 µg/kg)
The answer should be a number; do not append a unit.

Which Best T/C reading was recorded for the molecule Cc1c[nH]c2c(O)cc3c(c12)[C@H](CCl)CN3C(=O)c1cc2cc(NC(=O)c3ccc(C(=O)Nc4ccc5[nH]c(C(=O)N6C[C@@H](CCl)c7c6cc(O)c6[nH]cc(C)c76)cc5c4)[nH]3)ccc2[nH]1 [Compound 7] ? 156

Record: Cc1c[nH]c2c(O)cc3c(c12)[C@H](CCl)CN3C(=O)c1ccc(C(=O)N2C[C@@H](CCl)c3c2cc(O)c2[nH]cc(C)c32)o1 [Compound 5] 156

Cc1c[nH]c2c(O)cc3c(c12)[C@H](CCl)CN3C(=O)c1ccc2[nH]c(C(=O)N3C[C@@H](CCl)c4c3cc(O)c3[nH]cc(C)c43)cc2c1 [Compound 10] , same question. 213

Hey, just so you know, these numbers are from patent EP0359454B1.
